tested on: VM46 colon carcinoma; conditions: number of mice; i.v. qd x 1; mg/kg: Taxol 24, 0499 77, 0503 72.6, 0670 123.1, 0706 107.6, 0838 72.6, 0854 46.6, 0983 67.4, Taxotere 70; 6 mice/group; Day 64
Items are presented alongside their recorded Complete Response.
Kindly provide the number alone.

Compound | Observed result
CC(=O)O[C@@]12CO[C@@H]1C[C@H](O)[C@@]1(C)C(=O)[C@H](OC(=O)C3CC3)C3=C(C)[C@@H](OC(=O)[C@H](O)[C@H](C=C(C)C)NC(=O)OC(C)(C)C)C[C@@](O)([C@@H](OC(=O)c4ccccc4)[C@H]21)C3(C)C | 0

Challenge: Which measured Complete Response belongs to CC(=O)O[C@H]1C(=O)[C@@]2(C)[C@H]([C@H](OC(=O)c3ccccc3)[C@]3(O)C[C@H](OC(=O)[C@H](O)[C@@H](NC(=O)c4ccccc4)c4ccccc4)C(C)=C1C3(C)C)[C@]1(OC(C)=O)CO[C@@H]1C[C@@H]2O [Taxol, paclitaxel, reference compound] , tested on VM46 colon carcinoma?
Response given: 0

====

Let's look at some molecules and their measured Toxic Deaths.
test system: VM46 colon carcinoma; details: number of mice; i.v. qd x 1; mg/kg: Taxol 24, 0499 77, 0503 72.6, 0670 123.1, 0706 107.6, 0838 72.6, 0854 46.6, 0983 67.4, Taxotere 70; 6 mice/group

// known answers, use as guide
Molecule | Toxic Deaths
CCC(=O)O[C@H]1C(=O)[C@@]2(C)[C@H]([C@H](OC(=O)c3ccccc3)[C@]3(O)C[C@H](OC(=O)[C@H](O)[C@@H](NC(=O)c4ccccc4)c4ccoc4)C(C)=C1C3(C)C)[C@]1(OC(C)=O)CO[C@@H]1C[C@@H]2O | 0
CC(=O)O[C@@]12CO[C@@H]1C[C@H](O)[C@@]1(C)C(=O)[C@H](OC(=O)C3CC3)C3=C(C)[C@@H](OC(=O)[C@H](O)[C@@H](NC(=O)OC(C)(C)C)c4cccs4)C[C@@](O)([C@@H](OC(=O)c4ccccc4)[C@H]21)C3(C)C | 1
CCCC(=O)O[C@H]1C(=O)[C@@]2(C)[C@H]([C@H](OC(=O)c3ccccc3)[C@]3(O)C[C@H](OC(=O)[C@H](O)[C@@H](NC(=O)OC(C)(C)C)c4ccco4)C(C)=C1C3(C)C)[C@]1(OC(C)=O)CO[C@@H]1C[C@@H]2O | 3

Challenge: Fill in the recorded Toxic Deaths for this molecule, with VM46 colon carcinoma as test system: CC(=O)O[C@@]12CO[C@@H]1C[C@H](O)[C@@]1(C)C(=O)[C@H](O)C3=C(C)[C@@H](OC(=O)[C@H](O)[C@@H](NC(=O)OC(C)(C)C)c4ccccc4)C[C@@](O)([C@@H](OC(=O)c4ccccc4)[C@H]21)C3(C)C [Taxotere, docetaxel, reference compound]
Response given: 0

====

Each entry below carries its reported Stable Disease.
system: VM46 colon carcinoma; conditions: number of mice; i.v. qd x 1; mg/kg: Taxol 24, 0499 77, 0503 72.6, 0670 123.1, 0706 107.6, 0838 72.6, 0854 46.6, 0983 67.4, Taxotere 70; 6 mice/group; Day 64
Kindly provide the number alone.

Here are 3 compounds together with their reported answers.
Compound | Target entity | Stable Disease
CC(=O)O[C@@]12CO[C@@H]1C[C@H](O)[C@@]1(C)C(=O)[C@H](OC(=O)C3CC3)C3=C(C)[C@@H](OC(=O)[C@H](O)[C@@H](NC(=O)OC(C)(C)C)c4cccs4)C[C@@](O)([C@@H](OC(=O)c4ccccc4)[C@H]21)C3(C)C | VM46 colon carcinoma | 1
CCCC(=O)O[C@H]1C(=O)[C@@]2(C)[C@H]([C@H](OC(=O)c3ccccc3)[C@]3(O)C[C@H](OC(=O)[C@H](O)[C@@H](NC(=O)OC(C)(C)C)c4ccco4)C(C)=C1C3(C)C)[C@]1(OC(C)=O)CO[C@@H]1C[C@@H]2O | VM46 colon carcinoma | 1
CC(=O)O[C@@]12CO[C@@H]1C[C@H](O)[C@@]1(C)C(=O)[C@H](OC(=O)C3CC3)C3=C(C)[C@@H](OC(=O)[C@H](O)[C@H](C=C(C)C)NC(=O)OC(C)(C)C)C[C@@](O)([C@@H](OC(=O)c4ccccc4)[C@H]21)C3(C)C | VM46 colon carcinoma | 3

Next:
Challenge: Which Stable Disease is reported with VM46 colon carcinoma for this entry: CC(=O)O[C@@]12CO[C@@H]1C[C@H](O)[C@@]1(C)C(=O)[C@H](O)C3=C(C)[C@@H](OC(=O)[C@H](O)[C@@H](NC(=O)OC(C)(C)C)c4ccccc4)C[C@@](O)([C@@H](OC(=O)c4ccccc4)[C@H]21)C3(C)C [Taxotere, docetaxel, reference compound] ?
Response given: 0
